Examples of molecules with documented IC50 follow.
Target: UniProt Q7ZJM1
Test: Inhibition of HIV1 integrase-mediated 3'-processing activity

Use these answered entries as a reference point.
SMILES_ENTRY	TARGET_DESC	IC50
O=S(=O)(/C=C/c1ccc(OCc2ccccc2)c(OCc2ccccc2)c1)CS(=O)(=O)/C=C/c1ccc(OCc2ccccc2)c(OCc2ccccc2)c1	UniProt Q7ZJM1	> 100 µM
O=S(=O)(/C=C/c1ccc2c(c1)OCCO2)CS(=O)(=O)/C=C/c1ccc2c(c1)OCCO2	UniProt Q7ZJM1	> 100 µM
COc1cc(Br)c(/C=C/S(=O)(=O)CS(=O)(=O)/C=C/c2cc(OC)c(OC)cc2Br)cc1OC	UniProt Q7ZJM1	850 µM

INPUT: Which measured IC50 value corresponds to `O=S(=O)(/C=C/c1cc(OCc2ccccc2)c(OCc2ccccc2)c(OCc2ccccc2)c1)CS(=O)(=O)/C=C/c1cc(OCc2ccccc2)c(OCc2ccccc2)c(OCc2ccccc2)c1` ?
OUTPUT: > 100 µM

INPUT: Which measured IC50 value corresponds to `O=S(=O)(CCc1ccccc1)CS(=O)(=O)CCc1ccccc1` ?
OUTPUT: > 100 µM

INPUT: Which measured IC50 value corresponds to `O=S(=O)(/C=C/c1cccc(Br)n1)CS(=O)(=O)/C=C/c1cccc(Br)n1` ?
OUTPUT: > 1000 µM

INPUT: Which measured IC50 value corresponds to `O=S(=O)(/C=C/c1ccccc1OCc1ccccc1)CS(=O)(=O)/C=C/c1ccccc1OCc1ccccc1` ?
OUTPUT: > 100 µM

====

Biological target: Human immunodeficiency virus type 1 integrase (Human immunodeficiency virus 1, UniProt Q7ZJM1)
Sequence (Q7ZJM1 whole entry): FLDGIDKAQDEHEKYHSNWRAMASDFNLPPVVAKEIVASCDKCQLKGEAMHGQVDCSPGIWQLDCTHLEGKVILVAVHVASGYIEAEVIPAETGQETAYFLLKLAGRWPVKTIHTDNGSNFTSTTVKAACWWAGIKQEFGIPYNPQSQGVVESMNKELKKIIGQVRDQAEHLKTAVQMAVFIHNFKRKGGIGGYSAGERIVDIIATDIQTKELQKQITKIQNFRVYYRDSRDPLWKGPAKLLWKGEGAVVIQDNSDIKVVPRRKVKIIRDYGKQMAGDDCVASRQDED
Experiment: Inhibition of HIV1 integrase-mediated 3'-processing activity
pIC50: −log10 of the molar value.
RECORDED_ENDPOINT: pIC50

INPUT: Which measured pIC50 value corresponds to `COc1ccc(Br)cc1/C=C/S(=O)(=O)CS(=O)(=O)/C=C/c1cc(Br)ccc1OC` ?
OUTPUT: < 4.00

INPUT: Which measured pIC50 value corresponds to `O=S(=O)(/C=C/c1cc(F)c(F)c(F)c1)CS(=O)(=O)/C=C/c1cc(F)c(F)c(F)c1` ?
OUTPUT: < 4.00

INPUT: Which measured pIC50 value corresponds to `O=S(=O)(/C=C/c1ccccc1)CS(=O)(=O)/C=C/c1ccccc1` ?
OUTPUT: < 4.00
